TEST METHOD NOTES: amyloid nucleation score (Sup35N fusion, yeast selection) (log enrichment); library NNK1; higher = more nucleation; inactive = no reads after selection;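 note: zero at mode of non-aggregating sequences after 7 days selection at 30°C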

SUBSTANCE | amyloid nucleation score
VYRNAINSVIHFDGVVWGVG | inactive
SDAITRVIRHMNPFCLTALL | -0.928
VIFRDPGQRRLSC | -0.858
NDNLVDNQT | 0.23
MESLIRFSPASKIVISPFTV | 0.748
DQITYVPIMNQMMWATLLTF | 0.849
NRRVPLIHCYLMCGYTGTCW | 0.249
RTRAGKYMYVSSQPTCSILI | 0.312
SLQFLSKPHLLRESVSESVD | 0.381
VLDYGIVFNVVLLICIRTTE | 4.87
FAIFKSTIPINSVVWPIIMH | 0.87
VYFVTFWSYVNFHV | -0.208
MSSFRGDLEFAYDYS | -0.582
FVSSSKLIGCLVRHQKMANR | 0.258
GGYGCDGCLSNCMRLNGVWV | inactive
SSIGVVKGCIVLWLSMWNQR | 4.32
PGTSARRIDTKDVPYPFIPS | 1.16
SDDLFVNFSMSVWFLKVSLR | 0.515
RLMRHNMPTVVEHAGSSRSN | -0.132
NVAPSQSFPSLYCSE | inactive
SFRCDVD | -0.217
SSERYLASQPNSSPSPSIPT | -0.421
GIVHAPCDFHTSSFWW | -0.147
RCSTPRCSPL | -0.237
PDCLPPWSRRLLGNRVAIGL | 1.01
DRWRSL | -0.582
LYVFSEKIFCRNGFSSYISL | 0.855
TSSSRSIDR | 0.16
NKVLCFK | inactive
RDCPGL | -0.95
FFLRSPFL | 0.016
IGSSHRNSLVCVVEDENIQI | 1.01
YAPLDDSMKLCHERGESLCM | 0.186
ARQGASLGVK | -1.11
VIDEFLSMCRVNMMGGVCRV | 2.28
KCFAFRSLAHIASTCGWCLN | 2.4
SDGQNRTTMTYFPSVGWVSS | -1.98
TVNTYSANDYVRTMVCELSV | inactive
YSLVDTTLVILS | 0.226
PWCSKQEGTRMWGMYGAPGG | 0.162
CDCTNT | -0.78
HPSVGYSSLVV | 0.841
YPNVRSTYGDHSLLSNVAKG | 0.132
SVPSVDAIMVGTWCYRCW | -0.28
TLYLPGLKPTRHECMDLHQG | inactive
GRTSCLKRGISKEASLTGS | 1.25
WFVGGTWQGAMNKGPTFVN | 0.078
NGTRYMEAIMEKSLC | 1.47
TCLKFDSPMNCKGLSSLDMM | -0.496
TNTLLTPGCGINAIGVALYV | -0.628
TLRWGNYKLLQIVYITVWRD | 0.541
TFSEFAVIDIRYIWGTLFVS | 0.762
FTGCGLSPMGT | 1.05

----------
TEST METHOD NOTES: amyloid nucleation score (Sup35N fusion, yeast selection) (log enrichment); library NNK1; higher = more nucleation; inactive = no reads after selection

SUBSTANCE | amyloid nucleation score
AFRYDRVWVGQQLFGQECRP | 0.054
FNLFVTFSMLRPWSAVPMLA | 0.338
HPYSFWWSWAVKPLPGLRRI | 0.485
GLWIRFIAVTSSSVEIRANS | -0.776
SETYSSVAWRTMVVAAELVD | 0.822
TMVFCRI | 0.23
RHIYVSVNERLYVEFNYIAG | 2.19
LWLIPRWYDLTEMECFDMYN | 0.477
CLQWPEYPDYSVGGAFRRTG | -0.311
YPGNSGSIY | -0.266
GFPLQSKDTARNIGTQFLEW | -0.003
WFVKLNFLCLCVNMDWHSTY | 0.352
NRFFSRVKKYPYTLSYPGFC | 0.065
SFDRLMCRAM | 0.688
CFVGYQW | 0.622
HPLLMYWRRTFVEHRLYLT | 0.031
TSLYQAYSIYSFRYYIAYMC | 0.232
HSYTTV | -0.905
WHTRDYLKRRL | 0.906
WPVLFFI | -1.46
FMIAFVFSKTRGQSIVSYSV | -0.747
DSINCCMMCYEK | 7.57
GVDKASYPHSFGEQWLSLSL | 0.844
KTGPAA | -0.17
HCAYRFASENEMKGG | 0.321
CTVKLLMCQAISLTCSLGFF | 0.534
TNTSHVLTLESCSCRERVSR | 0.969
TGDIISRSLSASIEQNFSSN | 0.443
GFYLRYYLGISVRHYNHVIW | 1.19
CKVLCYIAYTWNLDCTEFEG | 6.45
RIGETASYTL | -0.09
GYLIYSWVLVNWNSGLEINK | 2.62
APMHINLWRDGTNVGQDWVV | 1.88
GLLFVKGTVDRQAWSGFEAH | -0.796
IYCYSYYLCSFLCVYDISKG | -0.457
AEKSFWHSSNPFIALPRTHR | -1
VLSHVGFKSRMSVTNPGCLD | -0.562
MLIRWNSYTGHIGWIFSGKA | 0.94
MMRTEIARVLCLSLF | 0.077
MFVDFTDVRMVYLSLCVYML | 1.25
SWNMSFVWFHGCITWRQKGF | 0.408
ISCWRNYLDLSSLYLFALFI | 2.53
